- procedure_text: Pharmacokinetics following oral (PO) dosing
- Format: in vivo, Sprague-Dawley rats
- recorded_conditions: male, Sprague-Dawley, rat, plasma, po, 5 mg/kg
parameter_measured: AUC (ng·h/mL)
Give the value, in units of ng·h/mL, as a plain number.

Lookup: Entry COCCOCCOC1C=CC2C3Cc4ccc(OC)c5c4C2(CCN3C)C1O5 (stereo not drawn) needs its AUC filled in; supply it.
Found: 5.85

Lookup: Hello, please tell me recorded AUC for this one: COCCOCCOCCOC1C=CC2C3Cc4ccc(OC)c5c4C2(CCN3C)C1O5 (stereo not drawn)
Found: 32

Lookup: Let me know recorded AUC for COCCOCCOCCOCCOC1C=CC2C3Cc4ccc(OC)c5c4C2(CCN3C)C1O5 (stereo not drawn) , thanks.
Found: 42.2

Lookup: Consider the compound COCCOCCOCCOCCOCCOCCOCCOCCOCCOC1C=CC2C3Cc4ccc(OC)c5c4C2(CCN3C)C1O5 (stereo not drawn) . State its measured AUC.
Found: 122

Lookup: Give AUC for the following compound: COCCOCCOCCOCCOCCOCCOCCOC1C=CC2C3Cc4ccc(OC)c5c4C2(CCN3C)C1O5 (stereo not drawn)
Found: 285

Lookup: Give reported AUC value for COCCOCCOCCOCCOCCOC1C=CC2C3Cc4ccc(OC)c5c4C2(CCN3C)C1O5 (stereo not drawn)
Found: 91.8

Values compiled from patent US20130023553A1.
